# test target: T1, BSA-conjugated Aβ heptapeptide FFAEDVC (C-terminal Cys coupled to NSMP-activated BSA);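 further: ELISA binding of human antibody (10 or 2 µg/ml) to plate-coated BSA–peptide conjugates, detected with HRP anti-human Ig and TMB colour, mock-treated BSA as negative control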
# T1 construct: also called Peptide 19-24
# T1 peptide: FFAEDVC
# method: ELISA
measured quantity: OD ratio 19-24/BSA

OD ratio 19-24/BSA recorded for this binder, MS-R IgG 7.11H2 (antibody, V domains shown, full-length human IgG; also called 7.11H2 IgG) VH: QVELVESGGGLVQPGGSLRLSCAASGFTFSSYAMSWVRQAPGKGLEWVSAINANGYKKYYADSVKGRFTISRDNSKNTLYLQMNSLRAEDTAVYYCARGKGNTHKPYGYVRYFDVWGQGTLVTVSS VL: DIVLTQSPATLSLSPGERATLSCRASQSVSSSYLAWYQQKPGQAPRLLIYGASSRATGVPARFSGSGSGTDFTLTISSLEPEDFATYYCQQVYSPPHTFGQGTKVEIKR , is 6

OD ratio 19-24/BSA recorded for this binder, MS-R #7.12 IgG1 (antibody, V domains shown, full-length human IgG1) VH: QVELVESGGGLVQPGGSLRLSCAASGFTFSSYGMSWVRQAPGKGLEWVSNISGSGSSTYYADSVKGRFTISRDNSKNTLYLQMNSLRAEDTAVYYCARGKGNTHKPYGYVRYFDVWGQGTLVTVSS VL: DIVLTQSPATLSLSPGERATLSCRASQYVSSPYLAWYQQKPGQAPRLLISGSSNRATGVPARFSGSGSGTDFTLTISSLEPEDFAVYYCLQLYNIPNTFGQGTKVEIKR , is 11
